- TESTED_TARGET: T1, GafA (Rhodobacter capsulatus, UniProt D5AUH1 1-382)
- T1 sequence: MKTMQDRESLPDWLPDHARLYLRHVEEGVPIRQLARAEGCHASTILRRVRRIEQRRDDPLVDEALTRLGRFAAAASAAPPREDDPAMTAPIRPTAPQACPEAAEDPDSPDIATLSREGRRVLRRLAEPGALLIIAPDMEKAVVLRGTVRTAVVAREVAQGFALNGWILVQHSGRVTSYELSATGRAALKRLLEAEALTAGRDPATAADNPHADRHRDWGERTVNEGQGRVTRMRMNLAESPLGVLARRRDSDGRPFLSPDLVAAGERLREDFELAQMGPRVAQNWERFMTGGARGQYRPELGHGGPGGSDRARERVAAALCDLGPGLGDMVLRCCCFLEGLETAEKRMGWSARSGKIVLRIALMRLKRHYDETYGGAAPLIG
- ASSAY: EMSA; 2 uM GafA; 80 nM Cy5-dsDNA, 25 mM HEPES pH 8.0, 50 mM K-glutamate, 50 mM MgSO4, 1 mM DTT, 0.1 mM EDTA, 0.05% Triton X-100, 1 ug poly dI:dC, 4% glycerol, 30 C 15 min; GtaR: 10 mM HEPES pH 8, 40 mM NaCl, 37 C 30 min; PCR products: pGTA 2 ng/ul, unlabelled 100 ng
- EXPERIMENTAL_SETUP: protein: recombinant; tags: His6 (pCMF176) or His6-MBP (pCMF193); label: 5'-Cy5 (one strand); blunt
PROPERTY_LABEL: binding result

[
  {
    "BINDER": "pGTA1 (dsDNA) DNA 1: TCCGGGGTTTTTTCTTTTCAGCGGGTGCAACCCTGAATATAGCACTTGAC DNA 2: GTCAAGTGCTATATTCAGGGTTGCACCCGCTGAAAAGAAAAAACCCCGGA",
    "MEAS_VALUE": "no binding"
  },
  {
    "BINDER": "pGTA5 (dsDNA) DNA 1: GGCATGCTAGGAGAGGTGGGCAAGCGCCGCGGGTGACCGTGTGCGCTTTT DNA 2: AAAAGCGCACACGGTCACCCGCGGCGCTTGCCCACCTCTCCTAGCATGCC",
    "MEAS_VALUE": "no binding"
  },
  {
    "BINDER": "pGTA3 (dsDNA) DNA 1: GCGCCGCGGGTGACCGTGTGCGCTTTTTTCATTTCGCTCGTGCGGACAGG DNA 2: CCTGTCCGCACGAGCGAAATGAAAAAAGCGCACACGGTCACCCGCGGCGC",
    "MEAS_VALUE": "no binding"
  },
  {
    "BINDER": "pGTA4 (dsDNA) DNA 1: TTCATTTCGCTCGTGCGGACAGGCATGAGAGGCGGGTCACGCAAGACATG DNA 2: CATGTCTTGCGTGACCCGCCTCTCATGCCTGTCCGCACGAGCGAAATGAA",
    "MEAS_VALUE": "no binding"
  }
]
